Biological target: T1, human IL-12Rβ1-his (Acro Biosystems), biotinylated (human, UniProt P42701 24-545, biotinylated)
T1 construct: bought; captured on Neutravidin in the ELISA; also called Bio-huIL-12Rβ1-His
Assay: ELISA, periplasmic extract
Property: OD450 nm

VHH233B1 (VHH) VHH: QVQLVESGGGLVQAGGSLRLSCAASRSISSFNEMAWYRQAPGEQRELVATIVSTVGFTNYADSVKGRFTISRDNAKNTVYLQMNSLKAEDTAVYYCNARRISTDYWGQGTQVTVSS	0.349

P: VHH50B1 (VHH) VHH: QVQLVESGGGLVQAGGSLRLSCAASGRAFSRYSMGWFRQAPGKEREFVAANYWSNGWTDYADTVKGRFSISRDNAKNTVYLQMNSLKPEDTAVYYCAGRSSSIPSADVVGYDYWGQGTQVTVSS
Q: VHH97B1 (VHH) VHH: QVQLVESGGGLAQAGGSLRLSCAASGRTFSNDDMAWFRQAPGKEREFVAHIDRNAASTNYADSVKGRFTISRDNAKNTVYLQMTRLKPEDTAVYYCAADPDHFGTTWYQQYTYWGPGTQVTVSS
Field: lower OD450 nm | Options: P / Q Return value: the label identifying the chosen record.
P
(P: 0.151, Q: 0.409)

1: VHH41B1 (VHH) VHH: EVQLVESGGGLVQAGGSLRVACAASGRTFSTYAMAWFRQAPGKEREFVAHILWSGGSTVYPDSVRGRFTISRDNAKNTVYLQMNSLKPEDTAVYYCAQKSGRQVYRIDSWDSFDYWGQGTSVTVSS
2: VHH174B1 (VHH) VHH: QVQLVESGGGAVQAGGSLRLSCAASGLTSRHYVMAWFRQAPGIEREFVASIWWGGSTYYADSVKDRFTISRDNAENTVYLQMNSLKPEDTAVYRCAVGTKIGTMGPRYDYWGQGTQVTVSS
Return label of the item with the larger OD450 nm. Candidates: 1 , 2 . Return value: the label identifying the chosen record.
2
(2: 1.19, 1: 0.413)
